experimentNotes: Cosolvent formulation: solubility, saline dilution and storage stability
Format: physicochemical
testSettings: PEG 400: Propylene glycol: Tween 80 (2:1:0.25), organic solvent or mixture; PEG 400: Propylene glycol: Tween 80, ratio 2:1:0.25; read-out: Solubility in cosolvent formulation
valueKind: solubility (µg/mL)
Report as a plain number; the unit µg/mL is understood.

Q) Requested read-out: solubility. Entry: `C/C(=N\c1ccc(O)cc1)c1cc2ccccc2n1C`
A) 5000

====

experimentNotes: Solubility in different solvents, shake-flask method
Assay type: physicochemical
testSettings: water, room temperature, n=3, read-out: Solubility in water
valueKind: solubility at 24 h (µg/mL)
Report as a plain number; the unit µg/mL is understood.

Q) Requested read-out: solubility at 24 h. Entry: `C/C(=N\c1ccc(O)cc1)c1cc2ccccc2n1C`
A) 110
